- run-description: Volatility of perfuming compounds (Tables 4 to 10), with top/middle/bottom note type
- Type: physicochemical
- settings: Table 10, perfuming compounds having a woody note; note type by volatility

{"compound": "CC(=O)/C=C/C1C(C)CCC(C)C1(C)C (racemic)", "Type": "Bottom"}
{"compound": "CC(=O)OCCC1=CCC2CC1C2(C)C (stereo not drawn)", "Type": "Middle"}
{"compound": "COC(OC)C(C)(C)CC=C(C)C", "Type": "Top"}
{"compound": "CCC(O)COC1CCCCC1C(C)(C)C (racemic)", "Type": "Top"}
{"compound": "C/C=C(\\C)C(=O)OCc1ccccc1 [BENZYL (E)-2-METHYL-2-BUTENOATE]", "Type": "Bottom"}
{"compound": "CC1CCC2C(C)(C)C3CC12CCC3(C)O (racemic)", "Type": "Bottom"}
{"compound": "C/C=C/C(=O)C1=C(C)CCCC1(C)C", "Type": "Middle"}
{"compound": "CC(=O)OC1CCC2C(C)(C)CCCC2(C)C1 (stereo not drawn)", "Type": "Bottom"}
{"compound": "CCCCC(CC)C(=O)OC (racemic) [(+−)-methyl 2-ethylhexanoate]", "Type": "Top"}
{"compound": "CCCC(O)CC[C@@H]1[C@@H](C)CCCC1(C)C (mixture of isomers)", "Type": "Bottom"}
{"compound": "CC1(CO)CC1CC1CC2CC2(C)C1(C)C (stereo not drawn)", "Type": "Bottom"}
{"compound": "CC/C(=C\\C[C@H]1CC=C(C)C1(C)C)CO", "Type": "Bottom"}

---

- run-description: Log P (n-octanol/water) of perfuming compounds (Tables 4 to 10)
- settings: Table 6, perfuming compounds having a fruity note

{"compound": "C=CC(CCCCC)OC(C)=O (racemic) [(+−)-1-PENTYL-2-PROPENYL ACETATE]", "Log P (n-octanol/water)": 3.79}
{"compound": "C/C=C/C(=O)C1=C(C)C=CCC1(C)C", "Log P (n-octanol/water)": 3.33}
{"compound": "COc1ccc(CCC(C)=O)cc1 [4-(4-METHOXYPHENYL)-2-BUTANONE]", "Log P (n-octanol/water)": 2.06}
{"compound": "CC(=O)CCC=C(C)C [6-METHYL-5-HEPTEN-2-ONE]", "Log P (n-octanol/water)": 2.05}
{"compound": "C=CCOC(=O)COc1ccccc1 [ALLYL PHENOXYACETATE]", "Log P (n-octanol/water)": 2.04}
{"compound": "CC(=O)CCc1ccc(O)cc1 [4-(4-HYDROXY-1-PHENYL)-2-BUTANONE]", "Log P (n-octanol/water)": 0.93}

---

- run-description: Volatility of perfuming compounds (Tables 4 to 10), with top/middle/bottom note type
- Type: physicochemical
- settings: Table 8, perfuming compounds having a sweet note; note type by volatility

{"compound": "CCc1occc(=O)c1O [2-ETHYL-3-HYDROXY-4(4H)-PYRANONE]", "Type": "Bottom"}
{"compound": "C/C=C/C(=O)[C@@H]1[C@@H](C)C=CCC1(C)C (racemic)", "Type": "Top"}
{"compound": "CCCCCCC1CCCC(=O)O1 (stereo not drawn) [6-hexyltetrahydro-2H-pyran-2-one]", "Type": "Bottom"}
{"compound": "CCC(=O)/C=C/C1=C(C)CCCC1(C)C", "Type": "Bottom"}
{"compound": "CC(=O)OCCc1ccccc1 [2-PHENYLETHYL ACETATE]", "Type": "Top"}

---

- run-description: Volatility of perfuming compounds (Tables 4 to 10), with top/middle/bottom note type
- Assay type: physicochemical
- settings: Table 6, perfuming compounds having a fruity note; note type by volatility

{"compound": "CC(C)CC(=O)OCc1ccccc1 [BENZYL 3-METHYLBUTANOATE]", "Type": "Middle"}
{"compound": "COC(=O)/C=C/c1ccccc1 [METHYL (E)-3-PHENYL-2-PROPENOATE]", "Type": "Middle"}
{"compound": "Cc1occc(=O)c1O [3-HYDROXY-2-METHYL-4(4H)-PYRANONE]", "Type": "Middle"}

---

- run-description: Volatility of perfuming compounds (Tables 4 to 10), with top/middle/bottom note type
- Type: physicochemical
- settings: Table 6, perfuming compounds having a fruity note; note type by volatility

{"molecule": "CC(=O)OC/C=C(\\C)CCC=C(C)C [(E)-3,7-DIMETHYL-2,6-OCTADIENYL ACETATE]", "Type": "Middle"}
{"molecule": "CC(C)(O)CCC1CCCCC1", "Type": "Middle"}
{"molecule": "C=CCOC(=O)COc1ccccc1 [ALLYL PHENOXYACETATE]", "Type": "Bottom"}
{"molecule": "C/C=C/c1ccc(OC(C)=O)c(OC)c1", "Type": "Bottom"}
{"molecule": "C[C@H]1[C@@H]2C[C@H](C[C@@]13C=CC(=O)CC3)C2(C)C", "Type": "Bottom"}
{"molecule": "CCCC(=O)OC(C)(C)Cc1ccccc1 [1,1-DIMETHYL-2-PHENYLETHYL BUTANOATE]", "Type": "Bottom"}
{"molecule": "CCCCCC1CCCC(=O)O1 (racemic) [(+−)-6-pentyltetrahydro-2H-pyran-2-one]", "Type": "Bottom"}

---

- run-description: Log P (n-octanol/water) of perfuming compounds (Tables 4 to 10)
- settings: Table 8, perfuming compounds having a sweet note

{"molecule": "COc1ccc(CCC(C)=O)cc1 [4-(4-METHOXYPHENYL)-2-BUTANONE]", "Log P (n-octanol/water)": 2.06}
{"molecule": "CC(=O)C(C)O (racemic) [(+−)-3-HYDROXY-2-BUTANONE]", "Log P (n-octanol/water)": "−1.03"}
{"molecule": "CCCC=C1OC(=O)c2ccccc21 [3-BUTYLIDENE-1-BENZO[C]FURANONE]", "Log P (n-octanol/water)": 3.12}
{"molecule": "SCc1ccco1 [2-FURANMETHANETHIOL]", "Log P (n-octanol/water)": 1.70}

---

- run-description: Volatility of perfuming compounds (Tables 4 to 10), with top/middle/bottom note type
- Assay type: physicochemical
- settings: Table 10, perfuming compounds having a woody note; note type by volatility

{"compound": "CC1CC[C@@]2(O1)C(C)(C)CCC[C@@]2(C)O (mixture of isomers)", "Type": "Middle"}
{"compound": "CC(=O)CCC1=C(C)CCCC1(C)C", "Type": "Middle"}
{"compound": "CC(C)(C)C1CCC(=O)CC1", "Type": "Top"}

---

- run-description: Volatility of perfuming compounds (Tables 4 to 10), with top/middle/bottom note type
- Type: physicochemical
- settings: Table 7, citrus note
Consider the cut-off 700 μg/l air. If the recorded Volatility (μg/l air) is strictly smaller, the label is yes (1); if not, the label is no (0).

{"compound": "CCCC1CCCC(=O)O1 (racemic) [(+−)-6-propyltetrahydro-2H-pyran-2-one]", "assigned-category": "yes (1)"}
{"compound": "CC(C)=CCC/C(C)=C\\CO", "assigned-category": "yes (1)"}
{"compound": "CCCCCC(C#N)CCC (racemic) [(+−)-2-propylheptanenitrile]", "assigned-category": "yes (1)"}
{"compound": "CCCCCC=O", "assigned-category": "no (0)"}
{"compound": "CC(OC=O)C1CCCC(C)(C)C1 (stereo not shown)", "assigned-category": "no (0)"}
{"compound": "C=CC(C)CC(=O)CC(C)C (racemic)", "assigned-category": "no (0)"}
{"compound": "CC/C=C\\CCOC(=O)c1ccccc1 [(3Z)-3-hexen-1-yl benzoate]", "assigned-category": "yes (1)"}
{"compound": "CCCCCCOC(=O)c1ccccc1O [HEXYL 2-HYDROXYBENZOATE]", "assigned-category": "yes (1)"}
{"compound": "C/C=C/c1ccc(OC(C)=O)c(OC)c1", "assigned-category": "yes (1)"}

---

Each entry below carries its reported Volatility (μg/l air).
- run-description: Volatility of perfuming compounds (Tables 4 to 10), with top/middle/bottom note type
- Format: physicochemical
- settings: perfuming compounds having a green note
- Description: In some aspects, the first perfume accord comprises perfuming compounds having a volatility ranging from 70,000 to 100 μg/l in air. In some aspects, perfuming compounds having a volatility ranging from 70,000 to 100 μg/l in air are referred to as “top notes”. In some aspects, the second perfume accord comprises perfuming compounds having a volatility ranging from 99 to 50 μg/l in air. […]

{"compound": "CC/C=C\\CCCCC=O [(Z)-6-NONENAL]", "Volatility (μg/l air)": "2431.73 μg/l air"}
{"compound": "CCC=CCC=C/C=C/C(=O)OCC [ETHYL (2E)-2,4,7-DECATRIENOATE]", "Volatility (μg/l air)": "25.34 μg/l air"}
{"compound": "CCCC(S)CCOC(C)=O (racemic) [(+−)-3-mercaptohexyl acetate]", "Volatility (μg/l air)": "421.09 μg/l air"}
{"compound": "C=CCOC(=O)COC1CCCCC1 [ALLYL (CYCLOHEXYLOXY)ACETATE]", "Volatility (μg/l air)": "47.01 μg/l air"}
{"compound": "CC(=O)OC(C)CC(C)(C)c1ccccc1 (racemic) [(+−)-1,3-DIMETHYL-3-PHENYLBUTYL ACETATE]", "Volatility (μg/l air)": "50.65 μg/l air"}
{"compound": "CC/C=C\\CC/C=C/CO", "Volatility (μg/l air)": "98.76 μg/l air"}
